# Test system: HOP-92 NSCLC
# measurementProtocol: NCI tumour cell line growth inhibition, 48 h
# binarize TGI: threshold 9 µM inclusive, high side true (1), low side false (0)

Example entries and their recorded answers appear below.
NC(=Nc1ccc(Cl)c(Cl)c1)c1ccccc1N    false (0)
O=C1CN2CCC1C/C2=C\c1ccnc2c(Cl)cccc12 (stereo unspecified)    true (1)
COc1ccc(-c2cc(=O)c3c(O)c(OC)c(O)cc3o2)cc1O    true (1)

Exercise: Reported TGI reaches at least 9 µM for `C[C@]12CC[C@H]3[C@@H](CC=C4C[C@@H](O)CC[C@@]43C)[C@@H]1C/C(=C\c1cccc(OCCCn3ccnc3)c1)[C@@H]2O` ?
Solution: true (1)

Exercise: Given O=C(O)C(Cc1ccccc1)N1C(=O)c2ccccc2C1=O (stereo unspecified) , state whether its TGI is at least 9 µM.
Solution: true (1)

Exercise: Has `COc1ccc2c(c1)-c1c(c3ccccc3n1CCN1CCCCC1)CC2` a recorded TGI greater than or equal to 9 µM?
Solution: true (1)

Exercise: Would you say `COc1cc(/C=C2\C[C@H]3[C@@H]4CC=C5C[C@@H](OC(C)=O)CC[C@]5(C)[C@H]4CC[C@]3(C)[C@H]2OC(C)=O)ccc1OCCCn1ccnc1` shows TGI at minimum 9 µM?
Solution: true (1)

Exercise: Does TGI meet or surpass 9 µM for `COc1cc(C(=O)O)ccc1NC(=O)[C@@H]1N[C@@H](CC(C)(C)C)[C@](C#N)(c2ccc(Cl)cc2F)[C@H]1c1cccc(Cl)c1F` ?
Solution: false (0)

Exercise: Dear colleague, could you confirm whether `CC1=C(C#N)C(=O)N(/N=C/c2ccc(Cl)cc2)C(=O)/C1=c1\o/c(=C2/C(=O)N(/N=C/c3ccc(Cl)cc3)C(=O)C(C#N)=C2C)c2nccnc12` has TGI at or above 9 µM?
Solution: true (1)

Exercise: TGI >= 9 µM for `CCOC(=O)C(=O)Nc1ccc([N+](=O)[O-])cc1C#N` ?
Solution: true (1)

###

# Test system: MDA-N
# measurementProtocol: NCI tumour cell line growth inhibition, 48 h
Measured TGI of individual entries

# example entries with known answers
Cn1c(=S)[nH]c2c(Cl)cc(Cl)cc2c1=O    > 100 µM
O=c1oc2ccccc2c(O)c1C(c1ccc2ccccc2c1)c1c(O)c2ccccc2oc1=O    68.9 µM
COc1c(C(=O)O)cccc1-c1cccc(C(=O)NCCN(CCNC(=O)c2cccc(-c3cccc(C(=O)O)c3OC)c2OC)CCNC(=O)c2cccc(-c3cccc(C(=O)O)c3OC)c2OC)c1OC    23.8 µM
CCOC(=O)C(NC(=O)NCc1ccc(F)cc1)C(F)(F)F (stereo not drawn)    > 100 µM
O=C(CCc1ccc(O)c(O)c1)c1ccc(O)c(O)c1O    32.2 µM

Exercise: Please look at `O=c1c2cc([N+](=O)[O-])cnc2sn1-c1ccc(Oc2ccccc2)cc1` and tell me its recorded TGI on MDA-N.
Solution: > 100 µM

Exercise: Specify TGI for OCC1OC(O)C(N=Cc2ccc3c(c2)OCO3)C(O)C1O (stereo not drawn) , system MDA-N.
Solution: > 100 µM

Exercise: Output reported TGI of the compound COC(=O)C(Cc1ccccc1)C(=O)NC(CNC(=O)OCc1ccccc1)C(=O)OCc1ccccc1 (stereo not drawn) on MDA-N.
Solution: 58 µM

Exercise: # return TGI for `CN(C)Cc1cc(C(=O)/C=C/c2c(Cl)cccc2Cl)cc(CN(C)C)c1O` , test system: MDA-N
Solution: 12.7 µM

Exercise: Provide MDA-N TGI reading for `CC1=C(C#N)C(=O)N(/N=C/c2ccc(Cl)cc2)C(=O)/C1=c1\o/c(=C2/C(=O)N(/N=C/c3ccc(Cl)cc3)C(=O)C(C#N)=C2C)c2nccnc12` .
Solution: > 100 µM

Exercise: Provide measured TGI on MDA-N for COC(=O)CC1CN(C(=O)OCc2ccccc2)C(C)(C)O1 (stereo not drawn) please.
Solution: > 100 µM

Exercise: // fetch TGI; item: `COc1ccc(-c2cc(=O)c3c(O)c(OC)c(O)cc3o2)cc1O` ; system: MDA-N
Solution: > 100 µM

Exercise: Report its TGI with MDA-N as the test system: `OC(c1ccc(-c2ccccc2)cc1)(c1ccc(-c2ccccc2)cc1)c1ccc(-c2ccccc2)cc1`
Solution: > 100 µM

Exercise: Name the value of TGI reported for Nc1ccn(C2OC(COP(=O)(O)O)C(O)C2O)c(=O)n1 (stereo not drawn) when tested on MDA-N.
Solution: > 100 µM
